test system: MDA-MB-435; assay: NCI tumour cell line growth inhibition, 48 h
The source made the active and inactive calls. Cut-off read from the data, not from the text of the source: active = GI50 up to about 1.1 µM and inactive = higher.
Would you mind telling me the reported GI50 of each entry?

Recorded GI50, per entry:
>>> df
                                   molecule        readout_value
0  CCOC(=O)COC1=Nc2cc(OC)c(OC)c3nc(Cl)cc(c23)C1=O    1.4 µM (inactive)
1               Cc1oc2nc(N(C)C)n3nnnc3c2c1C  > 100 µM (inactive)
2  O=C(O)c1nc2ccc(C(F)(F)F)cc2nc1NCc1ccc(Cl)c(Cl)c1   15.6 µM (inactive)
3       CN(C)CC/C=C1\c2ccccc2Sc2ccc(Cl)cc21   10.3 µM (inactive)
4  C[C@H](NC1=C(Cl)C(=O)c2c(O)ccc(O)c2C1=O)C(=O)Nc1ccc([N+](=O)[O-])cc1   1.57 µM (inactive)

Please supply GI50 for each of the following items, keeping them in order.
1. COc1ccccc1/C=C1\Sc2scc(-c3cccc([N+](=O)[O-])c3)[n+]2C1=O
2. CC(C)=NC(C(=O)O)C(C)(C)S (stereo unspecified)
3. CCOC(=O)N1CCC2(CC1)CC(=O)N(Nc1ccccc1)C2=O
4. O=C1C(Cl)=C(Cl)C(=O)C2=C1C1c3ccccc3C2c2ccccc21
5. CCCCCCSCC/C(C)=N\OC
6. Cc1ccc(C(=O)/C=C2\Nc3cccnc3NC2=O)cc1

1. 4.99 µM (inactive)
2. > 100 µM (inactive)
3. 30.8 µM (inactive)
4. 77.4 µM (inactive)
5. > 100 µM (inactive)
6. > 100 µM (inactive)
